- target: Amine oxidase [flavin-containing] B (Bos taurus, UniProt P56560)
- Sequence (P56560 whole entry): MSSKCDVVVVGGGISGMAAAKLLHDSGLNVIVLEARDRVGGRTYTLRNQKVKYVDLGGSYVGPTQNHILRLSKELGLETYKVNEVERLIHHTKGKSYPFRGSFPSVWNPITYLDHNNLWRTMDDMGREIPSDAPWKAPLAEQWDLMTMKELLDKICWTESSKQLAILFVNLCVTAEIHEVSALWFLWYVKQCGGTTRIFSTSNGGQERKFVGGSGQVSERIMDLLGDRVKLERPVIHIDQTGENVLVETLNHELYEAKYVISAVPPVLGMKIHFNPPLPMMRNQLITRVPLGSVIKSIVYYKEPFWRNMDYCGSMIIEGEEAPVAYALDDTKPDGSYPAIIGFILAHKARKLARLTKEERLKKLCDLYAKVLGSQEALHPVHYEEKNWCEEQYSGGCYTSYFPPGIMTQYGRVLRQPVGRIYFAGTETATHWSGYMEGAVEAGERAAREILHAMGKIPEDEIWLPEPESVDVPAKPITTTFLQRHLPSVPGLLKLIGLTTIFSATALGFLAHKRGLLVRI
- assay.method.text: Selectivity ratio for Vmax and KM values against MAO-B enzyme from bovine liver mitochondria
- experimental.setup: cattle

>  <compound.structure>
CN1CC=C(Oc2ccccc2)CC1

>  <Ratio>
688

$$$$
>  <compound.structure>
CN1CC=C(OC(=O)N(C)C)CC1

>  <Ratio>
57

$$$$
>  <compound.structure>
CN1CC=C(c2ccccc2)CC1

>  <Ratio>
523

$$$$
>  <compound.structure>
CN1CC=C(Sc2ccccc2)CC1

>  <Ratio>
3425

$$$$
>  <compound.structure>
CN1CC=C(OC(=O)N(C)c2ccccc2)CC1

>  <Ratio>
67

$$$$
>  <compound.structure>
CN1CC=C(Cc2ccccc2)CC1

>  <Ratio>
2674

$$$$
